System: THRa:RXRa (NR concentration 90 nM, RXRa partner concentration 90 nM)
Test: PBM binding z-score (relative to random genomic background probes); higher = stronger binding; sequences stand for … in GC…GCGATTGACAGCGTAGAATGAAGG
Provide the recorded PBM binding z-score for the entries that follow.
Give the figure by itself; no unit, no explanation.

Qu. Look up PBM binding z-score: `CGAACTAGGTCAAGGACAATGAATCTCCGCACGC`
Ans. 3.12

Qu. Look up PBM binding z-score: `CGAACTAGGTCAGACCAGGACAGTGAAGGATGAT`
Ans. 4.75

Qu. Look up PBM binding z-score: `ATATGTAGGTTACATCCGGGTCAATCAGGCTATG`
Ans. 3.8

Qu. Look up PBM binding z-score: `TATAGTTGGTCACGGAGGTCACACACGACGGGTA`
Ans. 3.9

Qu. Look up PBM binding z-score: `TTACCAAGGTGAGCTGAGGTCGTTTATCCAACTC`
Ans. 4.58

Qu. Look up PBM binding z-score: `TCTCGTAGATCAATAGAGGTTAAGAAAGTGCGCT`
Ans. 2.07

* * *

Test system: LXRb homodimer (NR concentration 270 nM)
Experiment: PBM binding z-score (relative to random genomic background probes); higher = stronger binding; sequences stand for … in GC…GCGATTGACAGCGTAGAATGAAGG
Okay, here is how we bin by PBM binding z-score: label 0: < -0.8; label 1: ≥ -0.8 and < -0.2; label 2: ≥ -0.2

Qu. State the class of the sequence shown: `CCTCGGAGGACAGAAGGTCGGAGCTGTCCGCTTT`
Ans. label 0

Qu. State the class of the sequence shown: `TAGCCTAGTTCATGGGCCAGTATACCACGCGAAC`
Ans. label 1

Qu. State the class of the sequence shown: `AGTCAAAGTTAACTAGGTAACGTAAGATTCAGCT`
Ans. label 1

Qu. State the class of the sequence shown: `CTACCAAGGTGAACGAGGTCGTTGATTACTATTC`
Ans. label 1

Qu. State the class of the sequence shown: `CGAACGAGGGCATGAGTTGGTAGCAAATGCCGAT`
Ans. label 0

Qu. State the class of the sequence shown: `GCTAGTTGGTCAGTATAAGGTCACACACCGGTCG`
Ans. label 2

Qu. State the class of the sequence shown: `ACAGACAGGTGATGAAGGTAACTCAGGCTATCAT`
Ans. label 1

Qu. State the class of the sequence shown: `TCATATAGGTAAATGCTAGGTTAAAGTCCGATCT`
Ans. label 2

Qu. State the class of the sequence shown: `GCAGACAGGTGAAACGCCGGTAACTCAGGGTGGC`
Ans. label 1

Qu. State the class of the sequence shown: `CCTCGGAGGACAACAGGAGGTCAGACCTGCCAGA`
Ans. label 1

Qu. State the class of the sequence shown: `GGAACGAGAGCAAGTTGATAGCAGAGTTTGATGG`
Ans. label 0

Qu. State the class of the sequence shown: `TCTATTAGTTGTAGGGCAACCGACGAGTCCGTTT`
Ans. label 2

* * *

Tested on: PPARg:RXRa 30nM:10nM, anti-RXR (NR concentration 30 nM, RXRa partner concentration 10 nM)
Assay: PBM binding z-score (relative to random genomic background probes); higher = stronger binding; sequences stand for … in GC…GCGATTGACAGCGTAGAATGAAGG
Provide the recorded PBM binding z-score for the entries that follow.
Give the figure by itself; no unit, no explanation.

Qu. Look up PBM binding z-score: `TGAATGAGGCTATAAGATCAGGGAACGTTGCAAA`
Ans. 0.0907

Qu. Look up PBM binding z-score: `TCTTGTACATCAACAGGAGGTTAAGAAAGATCGA`
Ans. 3.01

Qu. Look up PBM binding z-score: `CCTATTAGTTGACCATAAGGGCAACTGAAGCTCG`
Ans. 0.177

Qu. Look up PBM binding z-score: `AATACAGGATCATCGTAGGCCAGAGTACGCACAG`
Ans. 0.238

Qu. Look up PBM binding z-score: `ATACCAAGGTGATCGTGATGTCGTTGATACTAAC`
Ans. 0.217

Qu. Look up PBM binding z-score: `GCGACTGGGGCAAAGCAGGTCACCATAAGGTTGG`
Ans. 0.521
